target: T1, HLA-A01:01 class I MHC molecule (human); test: competition with a radiolabeled reference peptide for purified MHC I, gel filtration; 'Affinity (nM)'
T1 construct: heavy chain biotinylated and made in E. coli in the stability assay
EXPERIMENTAL READOUT: pIC50
Answers are plain numbers, as −log10 of the molar value.

Please list pIC50 recorded for the binder YMANGSLLNY [BTK, C481S peptide YMANGSLLNY]
7.88

// data source = patent US20220282217A1
